TARGET_DESC: ~100 representative kinases (Homo sapiens, UniProt O14965)
Construct: Recombinant protein kinase domains with a concentration of 2 μM
Sequence (O14965 1-403): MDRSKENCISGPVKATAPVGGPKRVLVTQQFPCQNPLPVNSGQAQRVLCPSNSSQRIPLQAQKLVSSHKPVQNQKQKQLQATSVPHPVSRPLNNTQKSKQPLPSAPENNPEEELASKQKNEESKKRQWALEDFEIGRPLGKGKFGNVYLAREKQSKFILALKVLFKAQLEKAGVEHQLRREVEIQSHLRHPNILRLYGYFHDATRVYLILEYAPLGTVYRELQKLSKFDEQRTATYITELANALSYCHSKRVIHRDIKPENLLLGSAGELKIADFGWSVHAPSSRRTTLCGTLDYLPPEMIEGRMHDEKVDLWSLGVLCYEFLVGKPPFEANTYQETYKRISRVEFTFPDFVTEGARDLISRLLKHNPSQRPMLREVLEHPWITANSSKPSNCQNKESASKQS
ASSAY_NAME: DSF 100 kinase selectivity screen;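 note: compound tested at 20 µM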
Assay type: binding
CONDITION_INFO: Protein STK6; DSF; average of three replicates
Procedure: Recombinant protein kinase domains with a concentration of 2 μM were mixed with a 20 μM compound solution in dimethyl sulfoxide (DMSO), 20 mM Hepes (pH 7.5), and 500 mM NaCl. SYPRO Orange (5000×, Invitrogen) was added as a fluorescence probe (1μl/ml). Subsequently, temperature-dependent protein unfolding profiles were measured using the QuantStudio 5 realtime PCR machine (Thermo Fisher Scientific, Waltham, MA, USA). […] The temperature was raised with a step rate of 3°C/min. […]
OBSERVED_PROPERTY: dTm (K)
Give the value in K but do not write K after it.

Consider the worked cases shown below.
# MOLECULE_SMILES, dTm / K
records = [
    ("O=C(Nc1cccc(-c2c[nH]c3ncnc(N4CCOCC4)c23)c1)C1(C(=O)Nc2ccc(F)c(Br)c2)CC1", 7.49),
    ("O=C(Nc1cccc(-c2c[nH]c3ncnc(N4CCOCC4)c23)c1)C1(C(=O)Nc2ccc(F)cc2F)CC1", 6.33),
    ("Cc1cc(NC(=O)C2(C(=O)Nc3ccc(F)cc3)CC2)cc(-c2c[nH]c3ncnc(N4CCOCC4)c23)c1", 6.69),
]

Please give the measured dTm for this compound: Cc1cc(NC(=O)C2(C(=O)Nc3cccc(-c4c[nH]c5ncnc(N6CCOCC6)c45)c3)CC2)ccc1F
8.40

FYI, the data here is from paper PMC12136037.
